test system: SNB-75 CNS; experiment: NCI tumour cell line growth inhibition, 48 h
ASSAY_ENDPOINT: GI50

[[record]]
compound = "Cc1cc(NCCCCNc2ccnc3cc(Cl)ccc23)nc(Nc2ccc(C(=O)N3CCCCC3)cc2)n1"
experimental_system = "SNB-75 CNS"
assay_value = "1720 nM"

[[record]]
compound = "COc1cc(OC)c2sc(-c3ccc(-n4cncc4-c4cc(OC)c(OC)c(OC)c4)cc3)nc2c1"
experimental_system = "SNB-75 CNS"
assay_value = "6470 nM"

[[record]]
compound = "Clc1nc(Cl)c2ncn(Cc3ccccc3Cn3cnc4c(Cl)nc(Cl)nc43)c2n1"
experimental_system = "SNB-75 CNS"
assay_value = "3900 nM"

[[record]]
compound = "CN(C)CCNc1nc2ccccc2c2c(=O)c3cc(F)ccc3sc12"
experimental_system = "SNB-75 CNS"
assay_value = "1450 nM"

[[record]]
compound = "COc1cc(/C=C2\\CCC/C(=C\\c3ccc(OCC4CO4)c(OC)c3)C2=O)ccc1OCC1CO1 (stereo unspecified)"
experimental_system = "SNB-75 CNS"
assay_value = "2920 nM"

[[record]]
compound = "O=C(NC1CCCCC1)c1ccc(Nc2ncnc3c2cnn3-c2ccccc2)cc1"
experimental_system = "SNB-75 CNS"
assay_value = "1710 nM"

[[record]]
compound = "c1ccc2c(c1)c1ccccc1c1ccccc21"
experimental_system = "SNB-75 CNS"
assay_value = "> 100000 nM"

[[record]]
compound = "CCOC(=O)C1=C(N)Oc2c(sc3c(C)cccc23)C1c1ccc(F)cc1 (stereo unspecified)"
experimental_system = "SNB-75 CNS"
assay_value = "265 nM"

[[record]]
compound = "O=C(NNc1cnccn1)c1nc2cc(F)ccc2n2cccc12"
experimental_system = "SNB-75 CNS"
assay_value = "1310 nM"

[[record]]
compound = "C=C(C)[C@@H]1CC[C@]2(C)[C@H](CC[C@@H]3[C@@H]([C@@](C)(O)CCC=C(C)C)CC[C@]32C)[C@@]1(C)CCC(=O)O"
experimental_system = "SNB-75 CNS"
assay_value = "15300 nM"

[[record]]
compound = "COc1cc(/C=C/C(=O)C(C(=O)/C=C/c2ccc(OC(=O)CCNC34CC5CC(CC(C5)C3)C4)c(OC)c2)C(=O)CCNC23CC4CC(CC(C4)C2)C3)ccc1OC(=O)CCNC12CC3CC(CC(C3)C1)C2 (stereo unspecified)"
experimental_system = "SNB-75 CNS"
assay_value = "4860 nM"


All values here come from PubChem BioAssay (NCI).
